protocol-description: Half life in Sprague-Dawley rat at 20 mg/kg, po administered as single dose
Type: ADME, organism-based
Set-up: dose 20 mg/kg, route oral
test-parameters: in vivo
result-type: half-life (h)
API: value field is a number in h; no unit string.

Using known records, supply half-life for `O=C(O)Cc1cc(Br)c(N(Cc2ccc(Oc3ccc(F)cc3F)cc2)Cc2cc(F)cc(F)c2)c(Br)c1`
5.96

====

protocol-description: AUC in Sprague-Dawley rat at 20 mg/kg, iv administered as single dose
Format: ADME, organism-based
Set-up: dose 20 mg/kg, route intravenous
test-parameters: plasma
result-type: AUC (ng·h/mL)
# unit: ng·h/mL | format: bare number

For the compound `O=C(O)Cc1cc(Br)c(N(Cc2ccc(Oc3ccc(F)cc3F)cc2)Cc2cc(F)cc(F)c2)c(Br)c1` , report AUC.
13000

====

measurement-target: Glucocorticoid receptor (Homo sapiens)
protocol-description: Antagonist activity at human glucocorticoid receptor expressed in CHOK1 cells assessed as inhibition of dexamethasone-induced alkaline phosphatase expression after 46 hrs by reporter gene assay
Assay type: functional, cell-based, CHO-K1
result-type: pIC50
Scale: negative log10 of molar concentration, which is what pIC50 denotes.

Give recorded pIC50. `COc1cc(C(=O)c2cccc(C)c2)c(Oc2c(Br)cc(CC(=O)O)cc2Br)cc1C(C)C`
6.40

====

As shown below, each of these compounds has a reported IC50 value.
measurement-target: Glucocorticoid receptor (Homo sapiens, UniProt P04150)
protocol-description: Displacement of [3H]dexamethasone from human glucocorticoid receptor expressed in baculovirus infected Sf9 cells after overnight incubation by scintillation counting
Provide the reading as a plain figure in nM.

Solved entries (count: 2):
{"columns": ["smiles-representation", "units-of-measure", "quantitative-readout"],
 "data": [
  ["O=C(O)Cc1cc(Br)c(N(Cc2ccc(Oc3ccc(Br)cc3Br)cc2)Cc2cc(F)cc(F)c2)c(Br)c1", "nM", 879],
  ["O=C(O)Cc1cc(Br)c(N(Cc2ccc(Oc3ccccc3Cl)cc2)Cc2cc(F)cc(F)c2)c(Br)c1", "nM", 235]
]}

Item `O=C(O)Cc1cc(Br)c(N(Cc2ccc(Oc3ccc(F)cc3F)cc2)Cc2cc(F)cc(F)c2)c(Br)c1` : provide IC50
4.5

Give the reported IC50 for this compound. `Cc1c(NS(C)(=O)=O)cccc1N(Cc1ccc(Oc2ccc(F)c(OCC(=O)O)c2)cc1)Cc1cc(F)cc(F)c1`
4.6

Specify IC50 for `O=C(O)Cc1cc(Br)c(N(Cc2ccc(Oc3ccccc3)cc2)Cc2cccc(F)c2)c(Br)c1` and stop.
820

Supply recorded IC50 for `Cc1ccccc1Oc1ccc(CN(Cc2cc(F)cc(F)c2)c2c(Br)cc(CC(=O)O)cc2Br)cc1` here.
1280

Provide only the value of recorded IC50 for `O=C(O)Cc1cc(Br)c(N(Cc2ccc(Oc3ccc(C(F)(F)F)cc3C(F)(F)F)cc2)Cc2cc(F)cc(F)c2)c(Br)c1`
111

Using known records, supply IC50 for `O=C(O)Cc1cc(Br)c(N(Cc2ccc(Oc3ccccc3Br)cc2)Cc2cc(F)cc(F)c2)c(Br)c1`
801

Give me measured IC50, please, for this compound: `O=C(O)Cc1cc(Br)c(N(Cc2ccc(Oc3ccccc3F)cc2)Cc2cc(F)cc(F)c2)c(Br)c1`
145

====

measurement-target: UniProt:P06536
Sequence (P06536 whole entry): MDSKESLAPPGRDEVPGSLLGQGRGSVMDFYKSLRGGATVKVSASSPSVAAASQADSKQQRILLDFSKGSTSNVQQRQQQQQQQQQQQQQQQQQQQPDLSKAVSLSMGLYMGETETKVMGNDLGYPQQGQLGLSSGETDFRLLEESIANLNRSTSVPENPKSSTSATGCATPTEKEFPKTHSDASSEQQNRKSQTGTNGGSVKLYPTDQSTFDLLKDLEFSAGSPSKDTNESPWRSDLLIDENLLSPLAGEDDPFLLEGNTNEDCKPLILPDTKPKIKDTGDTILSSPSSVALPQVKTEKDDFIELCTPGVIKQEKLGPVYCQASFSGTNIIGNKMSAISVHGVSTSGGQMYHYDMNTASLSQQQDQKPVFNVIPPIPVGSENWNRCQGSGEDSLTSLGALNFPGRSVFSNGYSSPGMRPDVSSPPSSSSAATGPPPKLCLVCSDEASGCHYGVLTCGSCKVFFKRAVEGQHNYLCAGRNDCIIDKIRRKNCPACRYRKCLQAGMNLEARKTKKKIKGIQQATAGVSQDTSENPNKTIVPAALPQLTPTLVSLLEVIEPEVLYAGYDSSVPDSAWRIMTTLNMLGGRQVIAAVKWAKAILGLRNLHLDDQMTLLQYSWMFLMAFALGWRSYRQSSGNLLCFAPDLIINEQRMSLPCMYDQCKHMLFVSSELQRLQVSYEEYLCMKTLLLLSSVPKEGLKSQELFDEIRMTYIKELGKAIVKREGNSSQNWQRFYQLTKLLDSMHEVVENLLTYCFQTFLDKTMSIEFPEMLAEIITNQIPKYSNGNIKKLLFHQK
protocol-description: Antagonist activity at glucocorticoid receptor in rat H4IIE cells assessed as inhibition of dexamethasone-induced […] expression after 24 hrs by reporter gene assay
Type: functional, cell-based
result-type: IC50 (nM)
Answer in nM, number only, no unit symbol.

Return the recorded IC50 value; entry: `COc1cc(C(=O)c2cccc(C)c2)c(Oc2c(Br)cc(CC(=O)O)cc2Br)cc1C(C)C`
2500

====

measurement-target: Glucocorticoid receptor (Homo sapiens)
protocol-description: Displacement of [3H]dexamethasone from human glucocorticoid receptor expressed in baculovirus infected Sf9 cells after 16-18 hrs by beta counting
result-type: IC50 (nM)
Just the number please, in nM, no unit attached.

Fill in IC50 for record `COc1cc(C(=O)c2cccc(C)c2)c(Oc2c(Br)cc(CC(=O)O)cc2Br)cc1C(C)C`
19

====

protocol-description: Cmax in Sprague-Dawley rat at 20 mg/kg, po administered as single dose
Type: ADME, organism-based
Parameters: dose 20 mg/kg, route oral
test-parameters: in vivo
result-type: Cmax (ng/mL)
Please give a number only; it is taken to be in ng/mL.

Report Cmax, nothing else, for this compound: `O=C(O)Cc1cc(Br)c(N(Cc2ccc(Oc3ccc(F)cc3F)cc2)Cc2cc(F)cc(F)c2)c(Br)c1`
880

====

measurement-target: UniProtKB P04150
Sequence (P04150 whole entry): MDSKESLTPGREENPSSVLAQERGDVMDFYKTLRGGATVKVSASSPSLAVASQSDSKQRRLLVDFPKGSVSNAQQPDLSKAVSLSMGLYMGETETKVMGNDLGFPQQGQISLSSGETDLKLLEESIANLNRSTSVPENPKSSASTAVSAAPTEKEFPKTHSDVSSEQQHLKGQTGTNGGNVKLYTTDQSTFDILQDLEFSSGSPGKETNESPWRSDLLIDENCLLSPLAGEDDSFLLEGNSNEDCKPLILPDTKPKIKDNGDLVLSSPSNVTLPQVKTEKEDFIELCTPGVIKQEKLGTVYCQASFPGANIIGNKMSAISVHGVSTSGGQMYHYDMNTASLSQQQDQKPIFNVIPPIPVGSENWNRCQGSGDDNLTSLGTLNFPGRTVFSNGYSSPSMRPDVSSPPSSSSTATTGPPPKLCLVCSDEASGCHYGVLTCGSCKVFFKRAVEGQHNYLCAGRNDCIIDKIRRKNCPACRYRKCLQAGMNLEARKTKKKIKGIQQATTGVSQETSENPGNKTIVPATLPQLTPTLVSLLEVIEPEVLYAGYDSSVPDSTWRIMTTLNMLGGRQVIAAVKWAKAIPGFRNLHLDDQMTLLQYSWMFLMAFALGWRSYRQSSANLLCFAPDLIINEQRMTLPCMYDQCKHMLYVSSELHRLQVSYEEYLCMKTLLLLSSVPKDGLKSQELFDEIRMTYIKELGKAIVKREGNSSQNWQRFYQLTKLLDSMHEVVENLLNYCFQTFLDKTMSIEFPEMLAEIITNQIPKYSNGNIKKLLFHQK
protocol-description: Displacement of [3H]dexamethasone from human glucocorticoid receptor expressed in baculovirus infected Sf9 cells after overnight incubation by scintillation counting
result-type: IC50

The examples below pair each entry with its known result.
{"columns": ["smiles-representation", "result"],
 "data": [
  ["O=C(O)c1ccc(N(Cc2ccccc2)Cc2ccc(Oc3ccccc3)cc2)cc1", "> 9000 nM"],
  ["COc1ccccc1Oc1ccc(CN(Cc2cc(F)cc(F)c2)c2c(Br)cc(CC(=O)O)cc2Br)cc1", "1260 nM"],
  ["Cc1ccc(Oc2ccc(CN(Cc3cc(F)cc(F)c3)c3c(Br)cc(CC(=O)O)cc3Br)cc2)c(C)c1", "1640 nM"]
]}

Give the measured IC50 for `COc1cc(C(=O)c2cccc(C)c2)c(Oc2c(Br)cc(CC(=O)O)cc2Br)cc1C(C)C`
20 nM

Provide measured IC50 value, entry: `O=C(O)Cc1cc(Br)c(N(Cc2ccccc2)Cc2ccc(Oc3ccccc3)cc2)c(Br)c1`
1200 nM

Quickly give me recorded IC50 for `O=C(O)Cc1cc(Br)c(N(Cc2ccc(Oc3ccccc3C(F)(F)F)cc2)Cc2cc(F)cc(F)c2)c(Br)c1`
298 nM

Give the reported value of IC50 for this record: `O=C(O)Cc1cc(Br)c(N(Cc2ccc(Oc3ccc(Cl)cc3Cl)cc2)Cc2cc(F)cc(F)c2)c(Br)c1`
96 nM

Entry `c1ccc(CN(Cc2ccc(Oc3ccccc3)cc2)c2ccccc2)cc1` needs its IC50 filled in; supply it.
> 10000 nM

The origin of these recorded values is ChEMBL document CHEMBL2086309.
